Data provenance: patent US9783505B2

System Tested: His-PKC-theta (Homo sapiens)
Construct: His; purchased Invitrogen
Sequence (Q04759 whole entry): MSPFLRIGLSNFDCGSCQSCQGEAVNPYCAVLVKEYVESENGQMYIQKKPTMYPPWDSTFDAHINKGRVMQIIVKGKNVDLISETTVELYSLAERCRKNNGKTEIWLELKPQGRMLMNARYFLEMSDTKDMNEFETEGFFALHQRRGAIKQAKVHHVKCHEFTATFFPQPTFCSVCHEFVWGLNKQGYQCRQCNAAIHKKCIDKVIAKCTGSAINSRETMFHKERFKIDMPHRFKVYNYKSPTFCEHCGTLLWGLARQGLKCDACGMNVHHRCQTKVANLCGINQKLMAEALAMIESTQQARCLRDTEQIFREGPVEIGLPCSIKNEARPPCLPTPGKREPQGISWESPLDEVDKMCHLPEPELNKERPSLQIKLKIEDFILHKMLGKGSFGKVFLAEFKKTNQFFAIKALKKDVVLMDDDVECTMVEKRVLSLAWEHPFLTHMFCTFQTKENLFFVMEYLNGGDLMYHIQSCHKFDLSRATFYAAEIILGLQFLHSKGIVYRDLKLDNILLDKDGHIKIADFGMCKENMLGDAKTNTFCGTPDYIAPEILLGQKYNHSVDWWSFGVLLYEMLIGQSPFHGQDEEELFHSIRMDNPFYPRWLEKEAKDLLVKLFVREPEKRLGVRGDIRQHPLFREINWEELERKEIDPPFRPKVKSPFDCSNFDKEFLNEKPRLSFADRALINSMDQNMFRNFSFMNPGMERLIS
Assay Protocol: PKC-theta Assay (384-well time resolved fluorescence, IMAP TR-FRET)
Type: biochemical
Test Context: Table 2; read-out: Act. Level (IC50 in the PKC-theta Assay)
Value Kind: IC50

Need IC50, item Cc1nnnn1-c1ccccc1CNc1ncc(C#N)c(N[C@@H]2CC[C@@H](O)C(C)(C)C2)n1 [Cmpd 18]
2000 to 10000 nM

Tell me the measured IC50 of CC1(C)C[C@H](Nc2nc(NCCc3ccc(S(=O)(=O)N4CCCCC4)cc3)ncc2C#N)CC[C@@H]1O [Cmpd 178] , please.
100 to 800 nM

Name the reported IC50 value associated with the compound CC1(C)[C@@H](O)C[C@H]1Nc1nc(NCCc2ccc(C#N)c(C(F)(F)F)c2)ncc1C#N [Cmpd 141]
100 to 800 nM

Looking for the measured IC50 of CC1(C)C[C@H](Nc2nc(NCCc3cccc(-c4ccccc4)c3)ncc2C#N)CC[C@@H]1O [Cmpd 58] , can you help?
800 to 2000 nM

Please report the recorded IC50 for CC1(C)C[C@H](Nc2nc(NCCc3cccc(Cl)c3F)ncc2C#N)CC[C@@H]1O [Cmpd 87] .
< 100 nM

Would you mind telling me what IC50 value was observed for CC1(C)C[C@H](Nc2nc(NCCc3ccc(C#N)c(OC(F)(F)F)c3)ncc2C#N)CC[C@@H]1O [Cmpd 144] ?
800 to 2000 nM

I would be grateful if you could share the reported IC50 for COc1cc(CCNc2ncc(C#N)c(N[C@@H]3CC[C@H](O)C(C)(C)C3)n2)ccc1O [Cmpd 95] .
100 to 800 nM

Fill in the blank: the reported IC50 of CC1(C)[C@@H](C(N)=O)C[C@H]1Nc1nc(NCCc2ccc(C#N)cc2)ncc1C#N [Cmpd 194] is ____.
100 to 800 nM

// returns reported IC50 for input Cc1nnnn1-c1cccc(CCNc2ncc(C#N)c(N[C@@H]3CC[C@H](O)C(C)(C)C3)n2)c1 [Cmpd 169]
100 to 800 nM

Field request: IC50 | item: CC1(C)C[C@H](Nc2nc(NCCc3cc(Cl)ccc3F)ncc2C#N)CC[C@@H]1O [Cmpd 89]
< 100 nM

Which measured IC50 value corresponds to CN1CCN(S(=O)(=O)c2ccc(CCNc3ncc(C#N)c(N[C@@H]4CC[C@H](O)C(C)(C)C4)n3)cc2)CC1 [Cmpd 179] ?
100 to 800 nM

What value of IC50 has been recorded for this entry: N#Cc1cnc(NCc2ccccc2OC(F)(F)F)nc1N[C@H]1CC[C@@H](O)CC1 [Cmpd 17]
800 to 2000 nM

Entry under review: CC1(C)C[C@H](Nc2nc(NCCc3cccc(Cl)c3)ncc2C#N)CC[C@@H]1O [Cmpd 32] . Reported IC50?
< 100 nM

Name the recorded IC50 for N#Cc1cnc(NCc2ccccc2OC(F)F)nc1N[C@H]1CC[C@@H](O)CC1 [Cmpd 4] .
100 to 800 nM

What value of IC50 has been reported for the following compound? Cc1ccccc1CNc1ncc(C#N)c(N[C@H]2CC[C@@H](O)CC2)n1 [Cmpd 19]
2000 to 10000 nM

Consider the compound shown here: N#Cc1cnc(NCCc2ccc(-n3ccnc3)c(F)c2)nc1N[C@H]1CC[C@@H](C(N)=O)CC1 [Cmpd 195] What is its recorded IC50?
< 100 nM

Which IC50 is listed for CC(F)(F)COc1ccc(CCNc2ncc(C#N)c(N[C@@H]3CC[C@H](O)C(C)(C)C3)n2)cc1 [Cmpd 151] ?
< 100 nM

For N#Cc1cnc(NCCc2cccc(Cl)c2)nc1N[C@H]1C[C@@H](O)C1 [Cmpd 70] , what is its reported IC50?
800 to 2000 nM

Would you kindly share the measured IC50 for CC1(C)[C@@H](CO)C[C@@H]1Nc1nc(NCCc2cccc(Cl)c2)ncc1C#N [Cmpd 77] ?
2000 to 10000 nM

Could you share which IC50 value was measured for CC(C)(CNc1ncc(C#N)c(N[C@@H]2C[C@H](O)C2(C)C)n1)c1cccc(Cl)c1 [Cmpd 40] ?
2000 to 10000 nM

May I ask what IC50 has been recorded for CC1(C)C[C@H](Nc2nc(NCCc3ccc(OCC(F)F)cc3)ncc2C#N)CC[C@@H]1O [Cmpd 170] ?
< 100 nM

Bench note: what IC50 did Cc1ccc(CCNc2ncc(C#N)c(N[C@@H]3CC[C@H](O)C(C)(C)C3)n2)cc1C [Cmpd 35] show?
< 100 nM

Please look up its IC50: CC1(C)C[C@@H](Nc2nc(NCC(O)c3ccc(OC(F)F)cc3)ncc2C#N)CC[C@H]1O (some centres unmarked) [Cmpd 50]
2000 to 10000 nM

Tell me the measured IC50 of N#Cc1cnc(NCCc2ccc(F)cc2)nc1N[C@H]1CC[C@@H](C(N)=O)CC1 [Cmpd 91] , please.
100 to 800 nM

What value of IC50 has been recorded for this entry: CC1(C)C[C@H](Nc2nc(NCCc3ccccc3OC(F)(F)F)ncc2C#N)CC[C@@H]1O [Cmpd 55]
100 to 800 nM

Which value of IC50 has been reported for N#Cc1cnc(NCc2ccccc2-n2cccn2)nc1N[C@H]1CC[C@@H](O)CC1 [Cmpd 21] in the records?
2000 to 10000 nM

Which IC50 reading was recorded for the compound Cc1nnnn1-c1ccccc1CCNc1ncc(C#N)c(N[C@@H]2CC[C@H](O)C(C)(C)C2)n1 [Cmpd 168] ?
2000 to 10000 nM

Quick one: IC50 for CC1(C)C[C@H](Nc2nc(NCCc3ccc(OCCF)cc3)ncc2C#N)CC[C@@H]1O [Cmpd 171] ?
< 100 nM

Request the reported IC50 associated with CC1(C)C[C@H](Nc2nc(NCCc3ccc(Cl)cc3)ncc2C#N)CC[C@@H]1O [Cmpd 33]
100 to 800 nM
